# Tested on: MCF7 breast
# test_details: NCI tumour cell line growth inhibition, 48 h
I'd be grateful if you could share measured TGI for these entries.

Completed entries (count: 5):
{"columns": ["molecule", "data_value"],
 "data": [
  ["O=C(/C=C/c1ccccc1)Nc1ccccc1SCCCCl", "> 100 µM"],
  ["CCN(CC)CCCC(C)N/C(=C1\\C(=O)NC(=O)\\C1=C(/NC(C)CCCN(CC)CC)c1cccc(OC)c1)c1cccc(OC)c1 (configuration not stated)", "3.56 µM"],
  ["C=CC1CN(C(=O)OCC)N(C(=O)OCC)C1CCc1ccccc1 (configuration not stated)", "> 100 µM"],
  ["CCC1(c2ccc(N3C(=O)c4cc(OC)c(OC)cc4C3=O)cc2)CCC(=O)NC1=O (configuration not stated)", "> 10 µM"],
  ["Cc1ccc(C)n2c1nc1ccccc12", "> 100 µM"]
]}

Dear colleague, could you send me TGI for each of the items below? Thanks.
1. C/C=C1/CC(C)C(C)(O)C(=O)OCC2C(O)CN3CCC(OC1=O)C23 (configuration not stated)
2. CCCCCCCCCCCCOC1C(CNC(=O)C2OC3OC(C)(C)OC3C2NC(=O)CN2CCN(c3ccc(OC)cc3)CC2)OC2OC(C)(C)OC21 (configuration not stated)
3. NC1CCC(N(CC(=O)O)CC(=O)O)C(N(CC(=O)O)CC(=O)O)C1 (configuration not stated)
4. C=CCC(N[C@@H](CO)c1ccccc1)c1cn(C(=O)OCC)c2ccccc12 (some centres not stated)
5. CN(CCCNC(=O)c1cn(C)c2c1Cc1ccccc1-2)CCCNC(=O)c1cn(C)c2c1Cc1ccccc1-2
6. NS(=O)(=O)c1cc(C(=O)O)c(O)c2ccccc12
7. Nc1nc(/C=C\c2ccccc2)nc(N2CCN(c3ccccc3)CC2)n1

> 100 µM
8.29 µM
> 100 µM
> 100 µM
25.4 µM
> 100 µM
84.1 µM
